Every entry's value here was drawn from patent US20260069689A1.

Could you please report measured pIC50 for the items listed next?
- systemName: SARS-CoV-2 RBD.mmh (Spike amino acids Arg319-Phe541 with C-terminal myc-myc-6-Histidine tag) (SARS-CoV-2, UniProt P0DTC2 319-541)
Remember, pIC50 is on a log scale: it is -log10 of the molar concentration.

Return reported pIC50; argument: mAb14280 (antibody, V domains shown) VH: QVQLVQSGAEVKKPGASVRVSCKASGYTFTGNYIHWVRQAPGQGLEWMAWINPNSGGKNYAQKFQGRVTLTRDTSVNTAYMELSRLRSDDTAMYYCARDVNYNILTGPGGLWGQGTLVTVSS VL: QSALTQPPSASGSPGQSVTISCTGTSSDVGGYNFVSWYQQHPGKAPKLMIYEVSKRPSGVPDRFSGSKSGNTASLTVSGLQAEDEADYYCSSYAGSNNFVFGTGTKVTVLG 8.76

Could you tell me which pIC50 is on file for mAb14257 (antibody, V domains shown) VH: EVQLVESGGGLVQPGGSLRLSCAASGFTVSRSYMNWVRQAPGKGLEWVSVVFTGGTTKHTDSVKGRFTISRDNSMNTLYLQMNSLRPEDTAVYYCARVAIVETTGAFDIWGQGTMVTVSS VL: QSVLTQPPSVSGAPGQRVTISCTGTSSNIGADFDVHWYQQFPGTAPKLLIYGHTNRPSGIPDRFSGSKSGTSASLAITGLQAEDEADYYCQSYDSSLSGSVVFGGGTKLTVLG ? 9.44

Requested field: pIC50. Item: mAb14312 (antibody, V domains shown) VH: EVQLVESGGGLVQPGGSLRLSCAASGFTVSRSYMTWVRQAPGKGLEWVSVIFTGGRTDHADSVKGRFTISRHNSKNTLYLQMNSLRTEDTAVYYCARVAIVGATGAFDIWGQGTMVTVSS VL: QSVLTQPPSVSGAPGQRVTISCTGSSSNIGAGDDVHWYQQLPGTAPKLLIYGNSNRPSGVPDRFSGSKSGTSASLAITGLQAEDEADYYCQSYDSSLSGSVVFGGGTKLTVLG 9.87
